Provide the recorded AD50 for the entries that follow.
# Tested on: Rattus norvegicus
# experimental.details: In vivo narcotic antagonist activity in rat after subcutaneous administration of the compound
# Type: functional

- molecule: "C=CCN1CCN2CC1Cc1ccc(N)cc12.CCS(=O)(=O)O (centres undefined)"
  target.or.test.system: "Rattus norvegicus"
  observed.property: "AD50"
  test.value: "1.6 mg/kg"
- molecule: "CCS(=O)(=O)O.c1ccc2c(c1)CC1CN2CCN1CC1CC1 (centres undefined)"
  target.or.test.system: "Rattus norvegicus"
  observed.property: "AD50"
  test.value: "34 mg/kg"
- molecule: "C=CCN1CC[C@]23c4c5ccc(O)c4O[C@H]2[C@@H](O)C=C[C@H]3[C@H]1C5.Cl [NALORPHINE HYDROCHLORIDE]"
  target.or.test.system: "Rattus norvegicus"
  observed.property: "AD50"
  test.value: "0.032 mg/kg"

Field request: AD50 | item: Nc1ccc2c(c1)N1CCN(CC3CC3)[C@H](C2)C1 0.31 mg/kg

// data source = ChEMBL document CHEMBL1123008
